- assayOverview: Liver microsomal metabolic stability, human liver microsomes (HLM)
- setupConditions: human, liver microsomes
assayEndpoint: half-life at 1 μM

compound	half-life at 1 μM
COc1ncnc(C2CC2)c1-c1cc2n(n1)CCCN2Cc1ccc(-c2nc(C(F)(F)F)cn2C(C)C)cc1 [Example 58]	< 25 min
COc1cc(C#N)nn1-c1ccc(CN2C(=O)CCn3nc(-c4c(Cl)cnn4C(C)C)cc32)cc1 [Example 106]	> 25 min

Query: Note half-life at 1 μM for the compound shown: Cc1cc(C(F)(F)F)nn1-c1ccc(NC2CCCn3nc(-c4c(Cl)cnn4C(C)C)cc32)cc1 (centres unmarked) [Example 244]
Reply: > 25 min

* * *

- assayOverview: Liver microsomal metabolic stability, human liver microsomes (HLM)
- setupConditions: human, liver microsomes
assayEndpoint: half-life at 1 μM

Example entries and their recorded answers appear below.
compound	recordedResult
CCn1cc(C(F)(F)F)nc1-c1ccc(CN2C(=O)CCn3nc(-c4c(C(F)F)cnn4C(C)C)cc32)cc1F [Example 328]	> 25 min
CCn1cc(C(F)(F)F)nc1-c1ccc(CC2OCCn3nc(-c4c(Cl)cnn4C(C)C)cc32)cc1 (stereo not drawn) [Example 265]	< 25 min
CCn1cc(C(F)(F)F)nc1-c1ccc(CN2C(=O)CCn3nc(-c4c(C#N)cnn4C(C)C)cc32)cc1 [Example 156]	> 25 min
CC(C)Oc1cccnc1-c1ccc(CN2C(=O)CCn3nc(-c4c(Cl)cnn4C(C)C)cc32)cc1Cl [Example 310]	< 25 min
COc1ncnc(C2CC2)c1-c1nc2n(n1)CCC(=O)N2Cc1ccc(-c2nc(C(F)(F)F)cn2C(C)C)c(F)c1 [Example 164]	> 25 min

Query: Note half-life at 1 μM for the compound shown: COc1cc(CN2C(=O)CCn3nc(-c4c(OC)ncnc4C4CC4)cc32)ccc1-c1nc(C(F)(F)F)cn1C(C)C [Example 108]
Reply: > 25 min

Query: Note half-life at 1 μM for the compound shown: COc1ncnc(C2CC2)c1-c1nc2n(n1)CCC(=O)N2Cc1ccc(-c2nc(C(F)(F)F)cn2C(C)CF)cc1 (stereo not drawn) [Example 195]
Reply: > 25 min

Query: Note half-life at 1 μM for the compound shown: CC(C)n1ncc(Cl)c1-c1cc2n(n1)CCC(=O)N2Cc1ccc(-c2ncccc2N2CCOCC2)c(Cl)c1 [Example 296]
Reply: < 25 min

Query: Note half-life at 1 μM for the compound shown: COc1ncnc(C2CC2)c1-c1nc2n(n1)CCC(=O)N2[C@H](C)c1ccc(-n2nc(C(F)(F)F)cc2C)c(F)c1 [Example 204]
Reply: > 25 min

Query: Note half-life at 1 μM for the compound shown: CCn1cc(C(F)(F)F)nc1-c1ccc(Cn2c(=O)ccn3nc(-c4c(OC(F)F)ncnc4C4CC4)nc23)cc1 [Example 345]
Reply: > 25 min

* * *

- assayOverview: ADME solubility determination in PBS at pH 2.0 and pH 7.4
- Assay type: physicochemical
- setupConditions: phosphate buffered saline, 25 °C, pH 2, aqueous buffer, thermodynamic from solid, PBS pH 2.0, 25° C., read-out: Solubility at pH 2.0
assayEndpoint: solubility at 24 h

Example entries and their recorded answers appear below.
compound	solubility at 24 h
CCn1cc(C(F)(F)F)nc1-c1ccc([C@@H](C)N2C(=O)CCn3nc(-c4c(OC)ncnc4C4CC4)nc32)cc1 [Example 184]	≥ 10 µM
COc1ncnc(C2CC2)c1-c1cc2n(n1)CCCN2Cc1ccc(-c2nc(C(F)(F)F)cn2C(C)C)cc1 [Example 58]	≥ 10 µM
COc1ncnc(C2CC2)c1-c1cc2n(n1)CCCN2Cc1ccc(-n2nc(C(F)(F)F)cc2C)cc1 [Example 27]	≥ 10 µM
CCn1cc(C(F)(F)F)nc1-c1ccc(C(C)N2C(=O)CCn3nc(-c4c(OC)ncnc4C4CC4)cc32)cc1F (stereo not shown) [Example 120]	< 10 µM
COc1ncnc(C2CC2)c1-c1cc2n(n1)CCC(=O)N2[C@@H](C)c1ccc(-c2nc(C(F)(F)F)cn2C(C)C)cc1 [Example 122]	≥ 10 µM

Query: Note solubility at 24 h for the compound shown: Cc1cnn(C(C)C)c1-c1cc2n(n1)CCC(=O)N2Cc1ccc(-c2nc(C(F)(F)F)cn2C)cc1 [Example 6]
Reply: ≥ 10 µM

Query: Note solubility at 24 h for the compound shown: CCn1cc(C(F)(F)F)nc1-c1ccc(OC2CCCn3nc(-c4c(Cl)cnn4C(C)C)cc32)cc1 (stereo not shown) [Example 261]
Reply: < 10 µM

Query: Note solubility at 24 h for the compound shown: CCn1cc(C(F)(F)F)nc1-c1ccc(NC2CCCn3nc(-c4c(OC)ncnc4C4CC4)cc32)cc1 (stereo not shown) [Example 240]
Reply: ≥ 10 µM

Query: Note solubility at 24 h for the compound shown: Cc1cc(C(F)(F)F)nn1-c1ccc(CN2C(=O)CCn3nc(-c4c(Cl)cnn4C(C)C)cc32)cc1F [Example 104]
Reply: < 10 µM

Query: Note solubility at 24 h for the compound shown: CC(C)n1cc(C(F)(F)F)nc1-c1ccc(CN2C(=O)CCn3nc(-c4c(Cl)cnn4C(C)C)nc32)cc1 [Example 41]
Reply: < 10 µM

Query: Note solubility at 24 h for the compound shown: CC(C)Oc1cccnc1-c1ccc(CN2C(=O)CCn3nc(-c4c(Cl)cnn4C(C)C)nc32)cc1 [Example 304]
Reply: ≥ 10 µM

Query: Note solubility at 24 h for the compound shown: CCOc1cc(C(F)(F)F)nn1-c1ccc(CN2C(=O)CCn3nc(-c4c(Cl)cnn4C(C)C)cc32)cc1 [Example 115]
Reply: < 10 µM

Query: Note solubility at 24 h for the compound shown: COc1ncnc(C2CC2)c1-c1nc2n(n1)CCC(=O)N2[C@@H](C)c1ccc(-c2nc(C(F)(F)F)cn2C)c(F)c1 [Example 196]
Reply: ≥ 10 µM

Query: Note solubility at 24 h for the compound shown: COCc1cc(C(F)(F)F)nn1-c1ccc(CN2C(=O)CCn3nc(-c4c(Cl)cnn4C(C)C)cc32)cc1 [Example 100]
Reply: < 10 µM

Query: Note solubility at 24 h for the compound shown: CC(C)n1cc(C(F)(F)F)nc1-c1ccc(C(N2CCCn3nc(-c4c(Cl)cnn4C(C)C)cc32)C(F)(F)F)cc1F (stereo not shown) [Example 371]
Reply: < 10 µM

Query: Note solubility at 24 h for the compound shown: CCn1cc(C(F)(F)F)nc1-c1ccc(N(CCO)C2CCCn3nc(-c4c(Cl)cnn4C(C)C)cc32)cc1F (stereo not shown) [Example 331]
Reply: < 10 µM
